Recorded values, source ChEMBL document CHEMBL5247587.

Tested on: Hepatitis B virus
Assay: Antiviral activity against HBV infected in human HepG2 2.2.15 cells assessed as inhibition of viral DNA replication at 4 uM incubated for 6 days with every 2 days media replacement by RT-PCR analysis relative to control
Assay type: functional
Set-up: scale not given: the % may be the effect or the level left
Settings: time 6 day
Criterion: Activity meeting or surpassing 10%. Met: t. Not met: f.

Some solved entries appear below for comparison.
| smiles.record | experimental.system | cat |
| --- | --- | --- |
| O=C(CCn1cnc2cc(-c3noc(CCC4CCCC4)n3)ccc21)NC1CCCCC1 | Hepatitis B virus | f |
| O=C(NCCn1cnc2cc(-c3noc(CCC4CCCC4)n3)ccc21)c1ccc(I)cc1 | Hepatitis B virus | t |
| O=C(NCCn1cnc2cc(-c3noc(CCC4CCCC4)n3)ccc21)c1cccc(Cl)c1 | Hepatitis B virus | t |
| Cc1ccccc1C(=O)NCCn1cnc2cc(-c3noc(CCC4CCCC4)n3)ccc21 | Hepatitis B virus | f |

In the following, a different compound is considered.
Has "Cc1cccc(C(=O)NCCn2cnc3cc(-c4noc(CCC5CCCC5)n4)ccc32)c1" a recorded Activity greater than or equal to 10%?
f

----------
System: Hepatitis B virus
Assay: Antiviral activity against HBV infected in human HepG2 2.2.15 cells assessed as inhibition of viral DNA replication at 4 uM incubated for 6 days with every 2 days media replacement by RT-PCR analysis relative to control
Format: functional
Parameters: scale not given: the % may be the effect or the level left
Details: time 6 day
metric.name: Activity

Some solved cases for reference:
| compound | experimental.system | Activity |
| --- | --- | --- |
| O=C(NCCn1cnc2cc(-c3noc(CCC4CCCC4)n3)ccc21)c1ccccc1C(F)(F)F | Hepatitis B virus | 46.02% |
| O=C(NCCn1cnc2cc(-c3noc(CCC4CCCC4)n3)ccc21)c1cccc(C(F)(F)F)c1 | Hepatitis B virus | 84.47% |
| O=C(NCCn1cnc2cc(-c3noc(CCC4CCCC4)n3)ccc21)c1ccccc1 | Hepatitis B virus | 28.98% |

Now let's try a different one.
For the compound "O=C(NCCn1cnc2cc(-c3noc(CCC4CCCC4)n3)ccc21)c1cccc(F)c1" , what Activity is on record?
45.92%

----------
Assay: Cytotoxicity against human HepG2 2.2.15 cells assessed as reduction in cell viability incubated for 72 hrs by CCK8 assay
Assay type: toxicity, cell-based
metric.name: CC50 at 72 h

| smiles.record | CC50 at 72 h |
| --- | --- |
| Cc1cccc(C(=O)NCCn2cnc3cc(-c4noc(CCC5CCCC5)n4)ccc32)c1 | > 20 µM |
| O=C(NCCn1cnc2cc(-c3noc(CCC4CCCC4)n3)ccc21)c1ccc(F)cc1 | > 20 µM |
| O=C(NCCn1cnc2cc(-c3noc(CCC4CCCC4)n3)ccc21)c1cccc(I)c1 | > 20 µM |
| O=C(NCCn1cnc2cc(-c3noc(CCC4CCCC4)n3)ccc21)c1cccc(F)c1 | > 20 µM |
| O=C(NCCn1cnc2cc(-c3noc(CCC4CCCC4)n3)ccc21)c1cccc(C(F)(F)F)c1 | > 20 µM |

For the compound "O=C(CCn1cnc2cc(-c3noc(CCC4CCCC4)n3)ccc21)N1CCCC1" , what CC50 at 72 h is on record?
> 20 µM

For the compound "Cc1ccccc1C(=O)NCCn1cnc2cc(-c3noc(CCC4CCCC4)n3)ccc21" , what CC50 at 72 h is on record?
> 20 µM
